Measured pIC50 by item
# Study system: cholix toxin (Vibrio cholerae, UniProt Q5EK40)
# Sequence (Q5EK40 33-666 limits assumed): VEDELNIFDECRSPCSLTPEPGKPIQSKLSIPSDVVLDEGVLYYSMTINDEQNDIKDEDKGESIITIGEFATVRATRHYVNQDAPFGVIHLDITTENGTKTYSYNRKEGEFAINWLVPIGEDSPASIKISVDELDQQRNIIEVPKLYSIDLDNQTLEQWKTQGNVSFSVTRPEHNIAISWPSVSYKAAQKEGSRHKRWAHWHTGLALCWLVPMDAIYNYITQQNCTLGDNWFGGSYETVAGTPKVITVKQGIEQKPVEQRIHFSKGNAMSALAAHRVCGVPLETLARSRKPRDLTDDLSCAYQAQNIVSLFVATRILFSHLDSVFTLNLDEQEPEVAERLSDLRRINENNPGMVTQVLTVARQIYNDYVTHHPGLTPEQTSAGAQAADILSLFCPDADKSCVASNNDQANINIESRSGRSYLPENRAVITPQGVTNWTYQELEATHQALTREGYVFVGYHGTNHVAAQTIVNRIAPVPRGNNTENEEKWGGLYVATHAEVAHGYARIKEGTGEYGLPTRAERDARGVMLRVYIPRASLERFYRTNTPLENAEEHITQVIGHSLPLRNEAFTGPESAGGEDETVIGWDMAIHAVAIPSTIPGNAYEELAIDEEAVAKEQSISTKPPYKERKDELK
# Protocol details: biochemical
# Assay type: biochemical
# Condition parameters: read-out: IC50
Bear in mind: pIC50 is minus log10 of a mol/L concentration; give just that figure.

Worked set:
1) O=C1NCCn2c(CCc3ccc(CN4CCCC4)cc3)nc3cccc1c32 [Compound P5] :: 5.35
2) O=c1[nH]c2ccccc2c2ccccc12 [PJ97A, reference compound] :: 5.33
3) CN(C)Cc1nc2cccc3c2n1CCNC3=O [Compound P4] :: 6.02
4) CN(C)CCCOc1ccc(-c2nc3cccc4c3n2CCNC4=O)cc1 [Compound P2] :: 6.32
5) CN1CCN(C2CCC3NC(O)C4CCCCC4C3N2)CC1 (stereo not shown) [Compound P3] :: 6.16
6) O=c1[nH]nc2c3c(cccc13)N=CN2 [Compound P7] :: 6.04

Query block: Any idea what pIC50 was measured for O=C1NCC2c3cc(S(=O)(=O)O)ccc3Oc3cccc1c32 (stereo not shown) [Compound P8] ?
Result block: 5.98

* * *

# Study system: WT ExoAc (Pseudomonas aeruginosa)
# Protocol details: biochemical
# Assay type: binding, P. aeruginosa
Parameter: pKd
Bear in mind: pKd is minus log10 of a mol/L concentration; give just that figure.

1. CC1=C(C)C2C(=O)CC(SCC(=O)NCCO)=CC2S1 (stereo not drawn) [Compound V30] :: 6.03
2. CN(C)CC(=O)Nc1ccc2[nH]c(=O)c3ccccc3c2c1.Cl [PJ34, hydrochloride, reference compound] :: 6.09

Attention now turns to another entry.
Query block: Any idea what pKd was measured for O=C1NC(=O)c2cccc3cccc1c23 [NAP, 1,8-naphthalimide, reference compound] ?
Result block: 6.02

* * *

# Study system: cholix toxin (Vibrio cholerae)
# Protocol details: biochemical
# Format: biochemical
# Condition parameters: read-out: Ki
Parameter: pKi
Bear in mind: pKi is minus log10 of a mol/L concentration; give just that figure.

Worked set:
1. O=C1NN=C(CN2CCOCC2)c2c[nH]c3cccc1c23 [Compound P1] :: 7.66
2. O=c1[nH]c2ccccc2c2ccccc12 [PJ97A, reference compound] :: 6.21
3. O=C1NCCn2c(CCc3ccc(CN4CCCC4)cc3)nc3cccc1c32 :: 6.24
4. O=C1NCC2c3cc(S(=O)(=O)O)ccc3Oc3cccc1c32 (centres unmarked) :: 6.87
5. CN1CCN(C2CCC3NC(O)C4CCCCC4C3N2)CC1 (centres unmarked) :: 7.05

Query block: Any idea what pKi was measured for `O=c1[nH]nc2c3c(cccc13)N=CN2` ?
Result block: 6.93

Query block: Any idea what pKi was measured for CN(C)CCCOc1ccc(-c2nc3cccc4c3n2CCNC4=O)cc1 [Compound P2] ?
Result block: 7.20

Query block: Any idea what pKi was measured for `CN(C)Cc1nc2cccc3c2n1CCNC3=O` ?
Result block: 6.88

* * *

# Study system: WT ExoAc (Pseudomonas aeruginosa, UniProt P11439)
# Sequence (P11439 430-638 limits assumed): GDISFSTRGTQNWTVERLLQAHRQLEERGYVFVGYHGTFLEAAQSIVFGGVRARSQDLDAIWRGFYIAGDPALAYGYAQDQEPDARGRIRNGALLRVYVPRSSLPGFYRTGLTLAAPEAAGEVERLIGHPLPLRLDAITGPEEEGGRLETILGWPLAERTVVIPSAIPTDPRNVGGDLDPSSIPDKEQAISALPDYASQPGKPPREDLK
# Protocol details: biochemical
# Format: binding, P. aeruginosa
# Condition parameters: read-out: Kd
Parameter: Kd

Query block: Give Kd (WT ExoAc (Pseudomonas aeruginosa, UniProt P11439)) of the following compound: O=c1[nH]c2ccccc2c2ccccc12 [PJ97A, reference compound]
Result block: 393 nM

Query block: Give Kd (WT ExoAc (Pseudomonas aeruginosa, UniProt P11439)) of the following compound: O=c1[nH]nc2c3c(cccc13)N=CN2 [Compound P7]
Result block: 680 nM

Query block: Give Kd (WT ExoAc (Pseudomonas aeruginosa, UniProt P11439)) of the following compound: CN(C)CCCOc1ccc(-c2nc3cccc4c3n2CCNC4=O)cc1 [Compound P2]
Result block: 260 nM
